test system: T. foetus cell-free lysate hemagglutinin; experiment: Inhibition of HA activity of T. foetus cell-free lysate; type: biochemical, Tritrichomonas foetus; conditions: carbohydrates, […]
Recorded measurements of Conc. required to inhibit 2 HA units, T. foetus, one per entry
metric.name: Conc. required to inhibit 2 HA units, T. foetus

compound: CC(=O)N[C@H]1[C@H]([C@H](O)[C@H](O)CO)OC(O)(C(=O)O)C[C@@H]1O (some centres unmarked) [N-acetylneuraminic acid]
experimental.result: > 200 µg/mL

compound: OC1OC[C@@H](O)[C@H](O)[C@H]1O (stereo partly drawn) [D-xylose]
experimental.result: > 200 µg/mL

compound: OC[C@H]1OC(O)[C@H](O)[C@@H](O)[C@@H]1O (stereo partly drawn) [D-glucose]
experimental.result: > 200 µg/mL

compound: C[C@H]1OC(O)[C@H](O)[C@@H](O)[C@H]1O (stereo partly drawn) [D-fucose]
experimental.result: > 200 µg/mL

compound: O=C(CO)[C@@H](O)[C@H](O)[C@H](O)CO [D-fructose]
experimental.result: > 200 µg/mL

compound: OC[C@H]1OC(O)[C@H](O)[C@@H](O)[C@H]1O (stereo partly drawn) [D-galactose]
experimental.result: > 200 µg/mL

compound: CC(=O)N[C@H]1C(O)O[C@H](CO)[C@H](O)[C@@H]1O (some centres unmarked) [N-acetylgalactosamine]
experimental.result: > 200 µg/mL

compound: OC1OC[C@@H](O)[C@@H](O)[C@@H]1O (stereo partly drawn) [D-arabinose]
experimental.result: > 200 µg/mL

compound: CC(=O)N[C@H]1C(O)O[C@H](CO)[C@@H](O)[C@@H]1O (some centres unmarked) [N-acetylglucosamine]
experimental.result: > 200 µg/mL

compound: OC[C@H]1O[C@@](CO)(O[C@H]2O[C@H](CO)[C@@H](O)[C@H](O)[C@H]2O)[C@@H](O)[C@@H]1O [Sucrose]
experimental.result: > 200 µg/mL

compound: OC[C@H]1OC(O)[C@@H](O)[C@@H](O)[C@@H]1O (stereo partly drawn) [D-mannose]
experimental.result: > 200 µg/mL

###

tested on: T. mobilensis lectin; assay: Inhibition of T. mobilensis lectin-mediated hemagglutination; assay type: biochemical, Tritrichomonas mobilensis; conditions: carbohydrates; 2 units of hemagglutinin

compound: CC(=O)NC1C(O)CC(OCC2OC(OC3C(CO)OC(O)C(O)C3O)C(O)C(O)C2O)(C(=O)O)OC1C(O)C(O)CO (stereo not shown)
Minimal Inhibitory Conc.: 1.0 mM
--
compound: CC(=O)N[C@H]1C(O)O[C@H](CO)[C@H](O)[C@@H]1O (stereo partly shown)
Minimal Inhibitory Conc.: > 100 mM
--
compound: OC[C@H]1O[C@H](O[C@H]2[C@H](O)[C@@H](O)C(O)O[C@@H]2CO)[C@H](O)[C@@H](O)[C@@H]1O (mixture of isomers)
Minimal Inhibitory Conc.: > 100 mM
--
compound: O=C(CO)N[C@H]1[C@H]([C@H](O)[C@H](O)CO)OC(O)(C(=O)O)C[C@@H]1O (stereo partly shown)
Minimal Inhibitory Conc.: 8.3 mM
--
compound: O=P(O)(O)OC[C@H]1OC(O)[C@@H](O)[C@@H](O)[C@@H]1O (stereo partly shown) [Mannose-6-phosphate]
Minimal Inhibitory Conc.: > 100 mM
--
compound: O=P(O)(O)OC1O[C@H](CO)[C@@H](O)[C@H](O)[C@@H]1O (stereo partly shown) [mannose-1-phosphate]
Minimal Inhibitory Conc.: > 100 mM
--
compound: OC1OC[C@@H](O)[C@H](O)[C@H]1O (stereo partly shown)
Minimal Inhibitory Conc.: > 100 mM
